- Tested on: ACHN renal
- method.notes: NCI tumour cell line growth inhibition, 48 h
Where a SMILES comes first, the peptide text is derived from it. [ ]: non-standard residue; d: D form. The star is where a group is joined. ξ: configuration not given here. NMeF = CN[CH](Cc1ccccc1)C(=O)O; ξNMe2Val = CC(C)C(C(=O)*)N(C)C; NMeV = CN[CH](C(=O)O)C(C)C; OtBu = CC(C)(C)O*
readout.name: TGI

Please list TGI recorded for the compound CSc1nc(NCc2ccccc2)c2cnn(COCCO)c2n1
62.1 µM

Retrieve TGI measured for CC(NNC(=O)c1ccncc1)c1cccc(C(F)(F)F)c1 (stereo not drawn) and print it.
> 100 µM

Provide TGI value for the following compound: COC(=O)[C@@]12C3=NO[C@]1(C(=O)OC)C(O[Si](C)(C)C(C)(C)C)[C@@H](OC(C)=O)[C@@H](OC(C)=O)[C@@H]2[C@@H](OCc1ccccc1)CC3 (stereo partly drawn)
> 100 µM

Consider the compound CC1=C(C(=O)Nc2ccc(Cl)c(Cl)c2)C(c2cccc(Cl)c2)NC(=S)N1 (stereo not drawn) . State its measured TGI.
37.1 µM

// fetch TGI given entry CC(=O)OCC1OC(n2c(=S)n(-c3ccccc3)c(=O)c3cc(Br)ccc32)C(OC(C)=O)C1OC(C)=O (stereo not drawn)
> 100 µM

Specify TGI for CC(C)C(C(=O)N(C)C(Cc1ccccc1)C(=O)N(C)C(C(=O)N(C)C(C(=O)N1CCCC1C(=O)OC(C)(C)C)C(C)C)C(C)C)N(C)C (stereo not drawn) (ξNMe2Val-[NMeF][NMeV][NMeV]P-OtBu; configuration not given here) and stop.
> 100 µM

Assign TGI to the following record: CC1=C2C=CC(=O)C[C@@]2(C)CCC1
> 100 µM

* * *

Measured TGI, listed per entry for reference.
- Test system: SK-MEL-5 melanoma
- method.notes: NCI tumour cell line growth inhibition, 48 h

State its TGI for this molecule: O=C1NC(=NCCc2ccc(Br)cc2)S/C1=C\c1ccc2ncccc2c1
> 25 µM

* * *

- Tested on: K-562 leukemia
- method.notes: NCI tumour cell line growth inhibition, 48 h; in the data active means GI50 below about 0.43 µM; inactive means the rest
Choose the fitting class; nothing outside yes (1) for active, no (0) for inactive is accepted.

Please review the entries below; each comes with its answer.
INSERT INTO measurements (compound, subject_of_test, class_assignment) VALUES
  ('CN(CCCCCl)P(=O)(OCc1ccc([N+](=O)[O-])o1)OCC1OC(n2cc([N+](=O)[O-])c(=O)[nH]c2=O)CC1O (configuration not stated)', 'K-562 leukemia', 'no (0)'),
  ('CCN1C(=O)N(CC)C2C1N=C(SC)N2/N=C/C=C/c1ccccc1OC (configuration not stated)', 'K-562 leukemia', 'yes (1)'),
  ('Cc1c(C(N)=O)sc2nc(C)n(/N=c3\scc(-c4ccccc4)n3Cc3ccccc3)c(=O)c12', 'K-562 leukemia', 'no (0)');

Continue with the compound presented below.
What did this assay record as the result for COc1cnccc1Nc1nc(-c2nn(Cc3c(F)cc(OCCO)cc3F)c3ccccc23)ncc1OC ?
no (0)

* * *

- Test system: SK-OV-3 ovarian
- method.notes: NCI tumour cell line growth inhibition, 48 h; in the data active = GI50 below about 0.43 µM; inactive = the rest
Log the outcome using a class from active, inactive

INSERT INTO results (compound, subject_of_test, class_assignment) VALUES
  ('COc1ccc2c(c1)C(=O)c1c-2n(CCCN(C)C)c(=O)c2cc([N+](=O)[O-])ccc12', 'SK-OV-3 ovarian', 'active'),
  ('COc1cnccc1Nc1nc(-c2nn(Cc3c(F)cc(OCCO)cc3F)c3ccccc23)ncc1OC', 'SK-OV-3 ovarian', 'inactive'),
  ('CC1=C(C(=O)Nc2ccc(Cl)c(Cl)c2)C(c2cccc(Cl)c2)NC(=S)N1 (stereo unspecified)', 'SK-OV-3 ovarian', 'inactive'),
  ('O=C1Cc2cc(CCN3CCNCC3)c(Cl)cc2N1', 'SK-OV-3 ovarian', 'inactive'),
  ('COc1ccc2c(c1)/C(=N/OC(C)=O)c1c-2c(OC)nc2ccccc12', 'SK-OV-3 ovarian', 'inactive');

Turning to the following compound.
How was O=C(CI)Nc1ccc(Br)cc1 classified in this test?
inactive

* * *

- Tested on: ACHN renal
- method.notes: NCI tumour cell line growth inhibition, 48 h
readout.name: TGI (µM)
Respond with the bare value in µM.

INSERT INTO measurements (compound, readout_name, unit_annotation, value_reported) VALUES
  ('Cn1cc2c3ccccc3nc-2c2ccccc21', 'TGI', 'µM', 5.81),
  ('COc1ccc2nc3ccccc3c(NCCCCN(CCCl)CCCl)c2c1', 'TGI', 'µM', 1.15);

Here's the next entry for you.
Enter measured TGI, system ACHN renal, for the compound shown: CCC(c1ccccc1)c1cc(C(C)(C)C)cc(C(C)(C)C)c1O (stereo unspecified)
32.6

* * *

- Test system: SK-MEL-5 melanoma
- method.notes: NCI tumour cell line growth inhibition, 48 h
Recorded TGI by entry

Examples from the recorded data:
INSERT INTO assay_data (molecule, subject_of_test, readout_name, value_reported) VALUES
  ('Nc1ccn(C2CCC(COP(=O)(O)OCC(O)COP(=O)(O)OCC3OC(n4cc(F)c(=O)[nH]c4=O)CC3O)O2)c(=O)n1 (stereo unspecified)', 'SK-MEL-5 melanoma', 'TGI', '> 21 µM'),
  ('CC(=O)NC(C)(C)C1CCC(C)CC1 (stereo unspecified)', 'SK-MEL-5 melanoma', 'TGI', '> 100 µM'),
  ('COc1ccc(-c2oc3cc(O)c(OC)c(O)c3c(=O)c2O)cc1', 'SK-MEL-5 melanoma', 'TGI', '34 µM'),
  ('O=C1Nc2ccc(Cl)c(I)c2C1=O', 'SK-MEL-5 melanoma', 'TGI', '34.9 µM'),
  ('COc1ccc(N2C(=O)/C(=C/c3ccc(N(CCC#N)CCC#N)cc3)N=C2c2ccccc2)cc1', 'SK-MEL-5 melanoma', 'TGI', '> 100 µM'),
  ('COc1ccc(/C=C/c2ccnc3ccccc23)cc1OC', 'SK-MEL-5 melanoma', 'TGI', '28 µM');

Supply reported TGI belonging to this molecule: O=C(N/C(=C\c1ccc(/C=C(\NC(=O)c2ccccc2)c2nc3c(O)nc(S)nc3[nH]2)cc1)c1nc2c(O)nc(S)nc2[nH]1)c1ccccc1
> 100 µM

Let me know recorded TGI for C[C@]12CCC(=O)C[C@@H]1CC[C@@H]1[C@@H]2CC[C@]2(C)[C@@H](OC(=O)N(CCCl)N=O)CC[C@@H]12 , thanks.
6.16 µM

For the molecule NC(=O)/N=C/c1c(O)c2ccccc2oc1=O , give its measured TGI value.
> 100 µM

Identify TGI associated with the molecule CCCN(CCC)C(=O)c1c(N2CCN(C)CC2)c2cccnc2n2c(C)cnc12
> 100 µM

For the molecule COc1ccc([C@H]2CC3C(=O)N(c4ccc(OC)cc4)C(=O)C3c3[nH]c4ccccc4c32)cc1 (stereo partly specified) , give its measured TGI value.
> 100 µM

* * *

- Test system: K-562 leukemia
- method.notes: NCI tumour cell line growth inhibition, 48 h
List of GI50 values.

INSERT INTO measurements (smiles_code, readout_name, value_reported) VALUES
  ('C(=N\Nc1ccc2ccccc2n1)/c1ccccn1', 'GI50', '0.487 µM'),
  ('COC(=O)c1cc(-c2ccc(S(C)(=O)=O)cc2)[nH]c1N/N=C/c1c(Cl)cccc1Cl', 'GI50', '1.87 µM');

Attention now shifts to the item below.
Check the records and state GI50 for FC(F)(F)c1cccc(-c2[nH]ncc2-c2nnnn2-c2ccccc2)c1
3.3 µM

* * *

- Test system: ACHN renal
- method.notes: NCI tumour cell line growth inhibition, 48 h
Listing of recorded TGI by entry.

Example entries begin here.
INSERT INTO assay_data (molecule, value_reported) VALUES
  ('COC(=O)C12Oc3ccc(-c4ccc5c(c4O)C(O)=C4C(=O)CC(C)C(O)C4(C(=O)OC)O5)c(O)c3C(O)=C1C(=O)CC(C)C2O (stereo not drawn)', '> 32.1 µM'),
  ('CC[C@]12C=CCN3CC[C@@]4(c5cc(Br)c(OC)cc5N(C)[C@H]4[C@@](O)(C(=O)NC(Cc4c[nH]c5ccccc45)C(=O)OC)[C@@H]1O)[C@@H]32 (stereo partly drawn)', '> 100 µM');

# next molecule below
Please list TGI recorded for the molecule Cc1cc(C)c2c(n1)S(=O)(=O)N(CCCN1CCN(c3cccc(Cl)c3)CC1)/C(=C(\O)c1ccc(Br)cc1)C2=O
> 100 µM
